molecular target: TBC1D23 C-terminal domain (mouse, UniProt Q8K0F1 559-684); assay: ITC
Sequence (Q8K0F1 559-684): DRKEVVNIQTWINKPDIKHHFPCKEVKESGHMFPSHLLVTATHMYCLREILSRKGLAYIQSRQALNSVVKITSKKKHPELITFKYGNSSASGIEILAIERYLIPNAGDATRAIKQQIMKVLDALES
readout: Kd (µM)

binder="AANTLYHRGFTED [STX16 DD209-210AA]" qualifying_sign=> numeric_readout=200
binder="DDNTLYHAGFTED [STX16 R216A]" qualifying_sign== numeric_readout=10.3

All values here come from paper PMC11093223.
